Test system: Pseudomonas aeruginosa
Experiment: Antibacterial activity against clinically isolated strains, MIC
Format: cell-based
Conditions: 54 clinical isolates, broth microdilution test
Please respond with reported MIC50 for every item in the list.

Lab entry: Pseudomonas aeruginosa assay, compound CCO/N=C(\C(=O)NC1C(=O)N2C(C(=O)[O-])=C(CSc3nc(N)cc(N)[n+]3C)CSC12)c1nsc(N)n1 (centres unmarked) [Compound I-20] , MIC50 = 4 µg/mL

Lab entry: Pseudomonas aeruginosa assay, compound C[n+]1c(N)cc(N)nc1SCC1=C(C(=O)[O-])N2C(=O)C(NC(=O)/C(=N\OCC(=O)O)c3csc(N)n3)C2SC1 (centres unmarked) [Compound I-7] , MIC50 = 4 µg/mL

Lab entry: Pseudomonas aeruginosa assay, compound CC(O/N=C(\C(=O)NC1C(=O)N2C(C(=O)[O-])=C(CSc3nc(N)cc(N)[n+]3N)CSC12)c1csc(N)n1)C(=O)O (centres unmarked) [Compound I-14] , MIC50 = 1 µg/mL

Lab entry: Pseudomonas aeruginosa assay, compound CCO/N=C(\C(=O)NC1C(=O)N2C(C(=O)[O-])=C(CSc3nc(N)cc(N)[n+]3N)CSC12)c1csc(N)n1 (centres unmarked) [Compound I-16] , MIC50 = 4 µg/mL

Lab entry: Pseudomonas aeruginosa assay, compound CC(O/N=C(\C(=O)NC1C(=O)N2C(C(=O)[O-])=C(CSc3nc(N)cc(N)[n+]3C)CSC12)c1csc(N)n1)C(=O)O (centres unmarked) [Compound I-4] , MIC50 = 4 µg/mL

Lab entry: Pseudomonas aeruginosa assay, compound C#CCO/N=C(\C(=O)NC1C(=O)N2C(C(=O)[O-])=C(CSc3nc(N)cc(N)[n+]3N)CSC12)c1csc(N)n1 (centres unmarked) [Compound I-18] , MIC50 = 4 µg/mL

Lab entry: Pseudomonas aeruginosa assay, compound C[n+]1c(N)cc(N)nc1SCC1=C(C(=O)[O-])N2C(=O)C(NC(=O)/C(=N\OC(C)(C)C(=O)O)c3csc(N)n3)[C@H]2SC1 (some centres unmarked) [Compound I-1] , MIC50 = 1 µg/mL

Lab entry: Pseudomonas aeruginosa assay, compound CCC[n+]1c(N)cc(N)nc1SCC1=C(C(=O)[O-])N2C(=O)C(NC(=O)/C(=N\OC(C)C(=O)O)c3csc(N)n3)C2SC1 (centres unmarked) [Compound I-45] , MIC50 = 4 µg/mL
